Origin of measurements: the supplement of paper PMC11061612

The following molecules are shown together with reported Bliss excess values.
System: KARPAS-620 (Plasma Cell Myeloma);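 further: after 72 h of two-drug dosing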
Experiment: Bliss excess, mean over the matrix (fraction); higher = more synergy
API doc: respond with a numeric literal and nothing else, no unit.

Please review the following examples before continuing.
Cn1cnc2c(F)c(Nc3ccc(Br)cc3Cl)c(C(=O)NOCCO)cc21 [Selumetinib] + C[C@@H]1COCCN1C2=NC(=NC(=C2)C3(CC3)[S@](=N)(=O)C)C4=C5C=CNC5=NC=C4 [AZD6738] (first compound max 10 µM, 7x7, partner max 10 µM) ... 0.0471
Cc1c2c(nn1C)CSCc1cc(n(C)n1)CSc1cc(c3ccccc3c1)OCCCc1c(C(=O)O)n(C)c3c-2c(Cl)ccc13 [AZD5991] + C[C@@H](Nc1cc(F)cc(F)c1)c1cc(C(=O)N(C)C)cc2c(=O)cc(N3CCOCC3)oc12 [AZD8186] (first compound max 1 µM, 7x7, partner max 3 µM) ... -0.0113
Cc1c2c(nn1C)CSCc1cc(n(C)n1)CSc1cc(c3ccccc3c1)OCCCc1c(C(=O)O)n(C)c3c-2c(Cl)ccc13 [AZD5991] + C=CCn1c(=O)c2cnc(Nc3ccc(N4CCN(C)CC4)cc3)nc2n1-c1cccc(C(C)(C)O)n1 [AZD1775] (first compound max 1 µM, partner max 1 µM) ... -0.0032

Now look at this one.
Name the reported Bliss excess value associated with the molecule N#Cc1cnc(Nc2cc(NC[C@H]3CNCCO3)c(C(F)(F)F)cn2)cn1 [SRA737] + C=CCn1c(=O)c2cnc(Nc3ccc(N4CCN(C)CC4)cc3)nc2n1-c1cccc(C(C)(C)O)n1 [AZD1775] (first compound max 10 µM, partner max 1 µM)
0.133
